Provenance of the data: the supplement of paper PMC6555819

# PBM binding z-score per record follows
tested on: RARa:RXR (NR concentration 270 nM, RXRa partner concentration 90 nM); experiment: PBM binding z-score (relative to random genomic background probes); higher = stronger binding; sequences stand for … in GC…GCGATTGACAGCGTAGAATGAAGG
Form rule: numeric answer, no unit written next to it.

# input Which PBM binding z-score value belongs to CCTCGGAGGACAAGAGGAGGTCAGAGCTGCCAGA ?
# output 1.94

# input Please do the same for CCTAGTTGGTCAAGGTGACACACGCTATAGGTAC as well.
# output 1.28

# input Also, TCTATTAGTTGATTCGGGCAACCGAAACAGCGGA please.
# output 0.414
